PROCEDURE_TEXT: Solubility in water (ICP-MS)
CONDITION_LABEL: 25 °C, limit of detection = 5 ppt
QUANTITY_MEASURED: Solubility (μM) (µM)
Give the quantity in µM, number only.

// known answers, use as guide
COMPOUND: Cc1cccc[c]1[Ru+]([Cl])([PH](c1ccccc1)(c1ccccc1)c1ccccc1)[PH](c1ccccc1)(c1ccccc1)c1ccccc1.F[P-](F)(F)(F)(F)F
UNITS_OF_MEASURE: µM
TEST_VALUE: 0.6

COMPOUND: Cc1ccccc1.[Cl][Ru]([Cl])[PH](c1ccccc1)(c1ccccc1)c1ccccc1
UNITS_OF_MEASURE: µM
TEST_VALUE: 65

Lookup: If you can, please state the reported Solubility (μM) value of `Cc1cccc[c]1[Ru+]([Cl])([PH](c1ccccc1)(c1ccccc1)c1ccccc1)[PH](c1ccccc1)(c1ccccc1)c1ccccc1.O=S(=O)([O-])C(F)(F)F` .
Found: 1.1

Lookup: Now consider Cc1cccc[c]1[Ru+]([Cl])([PH]12CN3CN(CN(C3)C1)C2)[PH](c1ccccc1)(c1ccccc1)c1ccccc1.F[P-](F)(F)(F)(F)F (stereo not drawn) .
Found: 547

Lookup: Now consider Cc1ccccc1.[Cl-].[Cl][Ru+]([PH](c1ccccc1)(c1ccccc1)c1ccccc1)[PH](c1ccccc1)(c1ccccc1)c1ccccc1 [Compound 11Cl, [Ru(η^6-toluene)(PPh3)2Cl]Cl] .
Found: 528

Lookup: Now consider `Cc1cccc[c]1[Ru+]([Cl])([PH](c1ccccc1)(c1ccccc1)c1ccccc1)[PH](c1ccccc1)(c1ccccc1)c1ccccc1.F[B-](F)(F)F` .
Found: 5

Lookup: Now consider `Cc1cccc[c]1[Ru+]([Cl])([PH](c1ccccc1)(c1ccccc1)c1ccccc1)[PH](c1ccccc1)(c1ccccc1)c1ccccc1.O=[N+]([O-])[O-]` .
Found: 268

====

PROCEDURE_TEXT: Solubility in water (ICP-MS)
CONDITION_LABEL: 25 °C, limit of detection = 5 ppt
QUANTITY_MEASURED: Solubility (μg/mL)

// known answers, use as guide
CHEMICAL_STRING: Cc1cccc[c]1[Ru+]([Cl])([PH](c1ccccc1)(c1ccccc1)c1ccccc1)[PH](c1ccccc1)(c1ccccc1)c1ccccc1.F[B-](F)(F)F
TEST_VALUE: 4 ± 1 µg/mL

CHEMICAL_STRING: Cc1cccc[c]1[Ru+]([Cl])([PH](c1ccccc1)(c1ccccc1)c1ccccc1)[PH](c1ccccc1)(c1ccccc1)c1ccccc1.O=S(=O)([O-])C(F)(F)F
TEST_VALUE: 1.0 ± 0.1 µg/mL

For the next question, use this compound.
Lookup: If you can, please state the reported Solubility (μg/mL) value of `Cc1cccc[c]1[Ru+]([Cl])([PH](c1ccccc1)(c1ccccc1)c1ccccc1)[PH](c1ccccc1)(c1ccccc1)c1ccccc1.F[P-](F)(F)(F)(F)F` .
Found: 0.6 ± 0.2 µg/mL
